Biological target: Jun bZIP R263A;Fos bZIP R158A (human;human, UniProt P05412;P01100 252-315;137-200, R263A|R158A)
Sequence (P05412 252-315 R263A, chain 1 of 2): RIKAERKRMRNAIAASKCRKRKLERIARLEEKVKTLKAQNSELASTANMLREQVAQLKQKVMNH
Sequence (P01100 137-200 R158A, chain 2 of 2): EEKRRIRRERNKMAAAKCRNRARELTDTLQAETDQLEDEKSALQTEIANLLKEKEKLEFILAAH
Test: ITC
observed_property: Kd (nM)
Response body: numeric value in nM, unit text excluded.

For this binder ( TRE duplex 15-mer (dsDNA) DNA 1: CGCGTGACTCACCCC DNA 2: GGGGTGAGTCACGCG ), measured Kd is 1120
